Molecular target: human CCR8 (human, UniProt P51685 1-355)
Test: cell-based or functional assay
The following binders are shown together with reported hCCL1 (100 nM) residual response, Protocol #3, mAb 5 µg/mL values.
Hi! Could you send only the number? It should be in %, unit omitted.

1. 3-76 (antibody, human IgG1, kappa, V domains shown, humanized, human IgG1 kappa) VH: EVQLVESGGGLVQPGRSLRLSCTASGFTFNTYAMNWVRQAPGKGLEWVARIRSKSNNYATYYAASVKGRFTISRDDSKSIAYLQMNSLKTEDTAVYYCVRGREAYYRYDGGYYAMDVWGQGTTVTVSS VL: DIVMTQAAPSLPVTPGESASISCRSSKSLLHSNGNTYLYWFLQKPGQSPQLLIYRMSNLASGVPDRFSGSGSGTAFTLKISRVEAEDVGVYYCMQHLEYPFTFGSGTKLEIKR ... 70

Now take the following binder into account.
Looking for the measured hCCL1 (100 nM) residual response, Protocol #3, mAb 5 µg/mL of 3-80 (antibody, human IgG1, kappa, V domains shown, humanized, human IgG1 kappa) VH: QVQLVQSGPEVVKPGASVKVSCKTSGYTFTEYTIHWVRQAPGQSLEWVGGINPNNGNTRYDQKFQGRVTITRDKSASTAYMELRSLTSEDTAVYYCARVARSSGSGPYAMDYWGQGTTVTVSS VL: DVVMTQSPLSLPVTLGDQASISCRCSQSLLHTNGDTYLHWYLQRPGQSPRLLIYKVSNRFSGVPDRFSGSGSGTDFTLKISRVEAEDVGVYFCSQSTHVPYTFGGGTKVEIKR , can you help?
42
